Reported Bliss excess values are given for each entry in this list.
Tested on: HTC-C3 (Thyroid Gland Carcinoma)
Test: Bliss excess, mean over the matrix (fraction); higher = more synergy
readout label: Bliss excess

- molecule: "Cc1c2c(nn1C)CSCc1cc(n(C)n1)CSc1cc(c3ccccc3c1)OCCCc1c(C(=O)O)n(C)c3c-2c(Cl)ccc13 [AZD5991] + C=CCn1c(=O)c2cnc(Nc3ccc(N4CCN(C)CC4)cc3)nc2n1-c1cccc(C(C)(C)O)n1 [AZD1775] (first compound max 1 µM, partner max 1 µM)"
  meas value: 0.0091
- molecule: "COc1cc2ncnc(Nc3ccc(F)c(Cl)c3)c2cc1OCCCN1CCOCC1 [Gefitinib] + CC(C)n1c(=O)n(C)c2cnc3cc(F)c(-c4ccc(OCCCN5CCCCC5)nc4)cc3c21 [AZD1390] (first compound max 10 µM, 7x7, partner max 0.3 µM)"
  meas value: -0.0976
- molecule: "COc1nnc2ccc(N3CCC(c4ccc(OCCN5CCN(C)C(=O)[C@H]5C)cc4)CC3)nn12 [AZD5153] + CN(CC[C@H](CSC1=CC=CC=C1)NC2=C(C=C(C=C2)S(=O)(=O)NC(=O)C3=CC=C(C=C3)N4CCC(CC4)[C@H](C5=CC=CC=C5C6=CC=C(C=C6)Cl)O)S(=O)(=O)C(F)(F)F)CCO [AZD4320] (first compound max 1 µM, 7x7, partner max 1 µM)"
  meas value: 0.0859
- molecule: "COc1nnc2ccc(N3CCC(c4ccc(OCCN5CCN(C)C(=O)[C@H]5C)cc4)CC3)nn12 [AZD5153] + C=CCn1c(=O)c2cnc(Nc3ccc(N4CCN(C)CC4)cc3)nc2n1-c1cccc(C(C)(C)O)n1 [AZD1775] (first compound max 1 µM, partner max 1 µM)"
  meas value: -0.033

* * *

Entries and their combination Emax
Test system: CML-T1 (Chronic Myelogenous Leukemia)
Assay: combination Emax (second highest fraction inhibited in the dose matrix, 72 h); higher = more inhibition; extreme values may be limits of the assay
readout label: combination Emax

- molecule: "CC1(C)CCC(CN2CCN(c3ccc(C(=O)NS(=O)(=O)c4ccc(NCC5CCOCC5)c([N+](=O)[O-])c4)c(Oc4cnc5[nH]ccc5c4)c3)CC2)=C(c2ccc(Cl)cc2)C1 [Venetoclax] + C[C@@H](Nc1cc(F)cc(F)c1)c1cc(C(=O)N(C)C)cc2c(=O)cc(N3CCOCC3)oc12 [AZD8186] (first compound max 1 µM, 7x7, partner max 3 µM)"
  tested on: "CML-T1 (Chronic Myelogenous Leukemia)"
  meas value: 0.967
- molecule: "COc1cccc(OCCCN)c1-c1cc(Nc2cnc(C#N)cn2)n[nH]1 [Prexasertib] + CCc1c2c(nc3ccc(O)cc13)-c1cc3c(c(=O)n1C2)COC(=O)[C@]3(O)CC [SN-38] (first compound max 1 µM, 7x7, partner max 0.3 µM)"
  tested on: "CML-T1 (Chronic Myelogenous Leukemia)"
  meas value: 1
- molecule: "Cc1c2c(nn1C)CSCc1cc(n(C)n1)CSc1cc(c3ccccc3c1)OCCCc1c(C(=O)O)n(C)c3c-2c(Cl)ccc13 [AZD5991] + CC(=O)O[C@H]1C(=O)[C@@]2(C)[C@H]([C@H](OC(=O)c3ccccc3)[C@]3(O)C[C@H](OC(=O)[C@H](O)[C@@H](NC(=O)c4ccccc4)c4ccccc4)C(C)=C1C3(C)C)[C@]1(OC(C)=O)CO[C@@H]1C[C@@H]2O [Paclitaxel] (first compound max 1 µM, 7x7, partner max 3 µM)"
  tested on: "CML-T1 (Chronic Myelogenous Leukemia)"
  meas value: 0.954
- molecule: "O=C(c1cc(Cc2n[nH]c(=O)c3ccccc23)ccc1F)N1CCN(C(=O)C2CC2)CC1 [Olaparib] + Cc1c2c(nn1C)CSCc1cc(n(C)n1)CSc1cc(c3ccccc3c1)OCCCc1c(C(=O)O)n(C)c3c-2c(Cl)ccc13 [AZD5991] (first compound max 10 µM, 7x7, partner max 1 µM)"
  tested on: "CML-T1 (Chronic Myelogenous Leukemia)"
  meas value: 0.832
- molecule: "CC1(C)CCC(CN2CCN(c3ccc(C(=O)NS(=O)(=O)c4ccc(NCC5CCOCC5)c([N+](=O)[O-])c4)c(Oc4cnc5[nH]ccc5c4)c3)CC2)=C(c2ccc(Cl)cc2)C1 [Venetoclax] + CCN(CCO)CCCOc1ccc2c(Nc3cc(CC(=O)Nc4cccc(F)c4)[nH]n3)ncnc2c1 [AZD2811] (first compound max 1 µM, 7x7, partner max 1 µM)"
  tested on: "CML-T1 (Chronic Myelogenous Leukemia)"
  meas value: 0.991
- molecule: "COc1cccc(OCCCN)c1-c1cc(Nc2cnc(C#N)cn2)n[nH]1 [Prexasertib] + O=C(c1cc(Cc2n[nH]c(=O)c3ccccc23)ccc1F)N1CCN(C(=O)C2CC2)CC1 [Olaparib] (first compound max 1 µM, 7x7, partner max 10 µM)"
  tested on: "CML-T1 (Chronic Myelogenous Leukemia)"
  meas value: 0.978
- molecule: "COc1cccc(OCCCN)c1-c1cc(Nc2cnc(C#N)cn2)n[nH]1 [Prexasertib] + C=CCn1c(=O)c2cnc(Nc3ccc(N4CCN(C)CC4)cc3)nc2n1-c1cccc(C(C)(C)O)n1 [AZD1775] (first compound max 1 µM, partner max 1 µM)"
  tested on: "CML-T1 (Chronic Myelogenous Leukemia)"
  meas value: 0.99

* * *

Tested on: NCI-H1755 (Lung Adenocarcinoma)
Assay: Bliss excess, mean over the matrix (fraction); higher = more synergy
Let's look at some compounds and their measured Bliss excess.

- compound: "C[C@@H](Oc1cc(-c2cnn(C3CCNCC3)c2)cnc1N)c1c(Cl)ccc(F)c1Cl [Crizotinib] + Cn1cnc2c(F)c(Nc3ccc(Br)cc3Cl)c(C(=O)NOCCO)cc21 [Selumetinib] (first compound max 10 µM, 7x7, partner max 10 µM)"
  Bliss excess: -0.006
- compound: "C[C@@H](Oc1cc(-c2cnn(C3CCNCC3)c2)cnc1N)c1c(Cl)ccc(F)c1Cl [Crizotinib] + CC1=C(C(=CC=C1)Cl)NC(=O)C2=CN=C(S2)NC3=CC(=NC(=N3)C)N4CCN(CC4)CCO [Dasatinib] (first compound max 10 µM, 7x7, partner max 2 µM)"
  Bliss excess: 0.0591

* * *

System: NCI-H1755 (Lung Adenocarcinoma)
Test: combination Emax (second highest fraction inhibited in the dose matrix, 72 h); higher = more inhibition; extreme values may be limits of the assay
readout label: combination Emax

- molecule: "CN(C)CCCOc1ccc(-c2ccc3ncc4c(c3c2)n(C2CCOCC2)c(=O)n4C)cn1 [AZD0156] + O=C(c1cc(Cc2n[nH]c(=O)c3ccccc23)ccc1F)N1CCN(C(=O)C2CC2)CC1 [Olaparib] (first compound max 3 µM, partner max 3 µM)"
  tested on: "NCI-H1755 (Lung Adenocarcinoma)"
  meas value: 0.414
- molecule: "CN(CCO)CC[C@H](CSc1ccccc1)Nc1ccc(S(=O)(=O)NC(=O)c2ccc(N3CCC([C@@H](O)c4ccccc4-c4ccc(Cl)cc4)CC3)cc2)cc1S(=O)(=O)C(F)(F)F [AZD4320] + C[C@@H](Nc1cc(F)cc(F)c1)c1cc(C(=O)N(C)C)cc2c(=O)cc(N3CCOCC3)oc12 [AZD8186] (first compound max 1 µM, 7x7, partner max 3 µM)"
  tested on: "NCI-H1755 (Lung Adenocarcinoma)"
  meas value: 0.45
- molecule: "CS(=O)(=O)CCNCc1ccc(-c2ccc3ncnc(Nc4ccc(OCc5cccc(F)c5)c(Cl)c4)c3c2)o1 [Lapatinib] + C[C@@H](Oc1cc(-c2cnn(C3CCNCC3)c2)cnc1N)c1c(Cl)ccc(F)c1Cl [Crizotinib] (first compound max 10 µM, 7x7, partner max 10 µM)"
  tested on: "NCI-H1755 (Lung Adenocarcinoma)"
  meas value: 0.957

* * *

Measured Bliss excess, listed per entry for reference.
System: LAMA-84 (Chronic Myelogenous Leukemia)
Assay: Bliss excess, mean over the matrix (fraction); higher = more synergy

- molecule: "O=C(c1cc(Cc2n[nH]c(=O)c3ccccc23)ccc1F)N1CCN(C(=O)C2CC2)CC1 [Olaparib] + CC1(C)CCC(CN2CCN(c3ccc(C(=O)NS(=O)(=O)c4ccc(NCC5CCOCC5)c([N+](=O)[O-])c4)c(Oc4cnc5[nH]ccc5c4)c3)CC2)=C(c2ccc(Cl)cc2)C1 [Venetoclax] (first compound max 10 µM, 7x7, partner max 1 µM)"
  tested on: "LAMA-84 (Chronic Myelogenous Leukemia)"
  Bliss excess: -0.003
- molecule: "CN(CCO)CC[C@H](CSc1ccccc1)Nc1ccc(S(=O)(=O)NC(=O)c2ccc(N3CCC([C@@H](O)c4ccccc4-c4ccc(Cl)cc4)CC3)cc2)cc1S(=O)(=O)C(F)(F)F [AZD4320] + C=CCn1c(=O)c2cnc(Nc3ccc(N4CCN(C)CC4)cc3)nc2n1-c1cccc(C(C)(C)O)n1 [AZD1775] (first compound max 1 µM, partner max 1 µM)"
  tested on: "LAMA-84 (Chronic Myelogenous Leukemia)"
  Bliss excess: 0.083
- molecule: "Cc1c2c(nn1C)CSCc1cc(n(C)n1)CSc1cc(c3ccccc3c1)OCCCc1c(C(=O)O)n(C)c3c-2c(Cl)ccc13 [AZD5991] + CS(=O)(=O)CCNCc1ccc(-c2ccc3ncnc(Nc4ccc(OCc5cccc(F)c5)c(Cl)c4)c3c2)o1 [Lapatinib] (first compound max 1 µM, 7x7, partner max 10 µM)"
  tested on: "LAMA-84 (Chronic Myelogenous Leukemia)"
  Bliss excess: 0.0258
- molecule: "CS(=O)(=O)CCNCc1ccc(-c2ccc3ncnc(Nc4ccc(OCc5cccc(F)c5)c(Cl)c4)c3c2)o1 [Lapatinib] + C[C@@H](Oc1cc(-c2cnn(C3CCNCC3)c2)cnc1N)c1c(Cl)ccc(F)c1Cl [Crizotinib] (first compound max 10 µM, 7x7, partner max 10 µM)"
  tested on: "LAMA-84 (Chronic Myelogenous Leukemia)"
  Bliss excess: 0.001
- molecule: "CC(=O)c1c(C)c2cnc(Nc3ccc(N4CCNCC4)cn3)nc2n(C2CCCC2)c1=O [Palbociclib] + Cn1cnc2c(F)c(Nc3ccc(Br)cc3Cl)c(C(=O)NOCCO)cc21 [Selumetinib] (first compound max 10 µM, 7x7, partner max 10 µM)"
  tested on: "LAMA-84 (Chronic Myelogenous Leukemia)"
  Bliss excess: -0.0263
- molecule: "COc1nnc2ccc(N3CCC(c4ccc(OCCN5CCN(C)C(=O)[C@H]5C)cc4)CC3)nn12 [AZD5153] + Cn1cnc2c(F)c(Nc3ccc(Br)cc3Cl)c(C(=O)NOCCO)cc21 [Selumetinib] (first compound max 1 µM, 7x7, partner max 10 µM)"
  tested on: "LAMA-84 (Chronic Myelogenous Leukemia)"
  Bliss excess: 0.0757
- molecule: "Cc1nc(-c2cn3c(n2)-c2ccc(-c4cnn(C(C)(C)C(N)=O)c4)cc2OCC3)n(C(C)C)n1 [Taselisib] + O=C(Nc1ccc2[nH]nc(-c3ccncc3)c2c1)[C@@H]1CCN(CC(=O)N2CCN(c3ccc(-c4ncccn4)cc3)CC2)C1 [SCH772984] (first compound max 10 µM, 7x7, partner max 5 µM)"
  tested on: "LAMA-84 (Chronic Myelogenous Leukemia)"
  Bliss excess: 0.11
